- Test system: TYK2 (Homo sapiens (Human), UniProt P29597)
- Sequence (P29597 871-1187): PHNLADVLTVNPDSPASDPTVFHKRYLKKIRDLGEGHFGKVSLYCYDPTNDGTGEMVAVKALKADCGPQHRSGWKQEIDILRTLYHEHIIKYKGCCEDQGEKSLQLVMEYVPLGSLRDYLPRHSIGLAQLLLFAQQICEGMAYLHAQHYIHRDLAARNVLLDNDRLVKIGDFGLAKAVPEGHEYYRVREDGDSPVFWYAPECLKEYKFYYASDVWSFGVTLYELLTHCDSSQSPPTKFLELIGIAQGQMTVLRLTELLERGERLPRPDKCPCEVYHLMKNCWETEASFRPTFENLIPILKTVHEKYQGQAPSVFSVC
- Assay notes: JAK kinase assay (HTRF), TYK2
- Condition description: catalytic domain (aa 871-1187), GST-tag, ATP at Km (13 μM)
- Description: Human baculovirus-expressed JAK1, 2, 3 and TYK2 were purchased from Carna Biosciences, Inc. All four purified enzymes contain only the catalytic domain. […] Inhibition of phosphorylation of a synthetic peptide was measured in an HTRF-based assay using the TK substrate-Biotin from the Cisbio HTRFKinEASE TK kit. […] The HTRF signal is read using an Envision plate reader.
Please respond with MET when measured EC50 is strictly beneath 0.3 µM, and with NOT MET in all other cases.

{"columns": ["Compound", "Label value"],
 "data": [
  ["C[C@]12CN(C#N)CC[C@H]1CCN(c1ncnc3[nH]ccc13)C2 (relative stereo) [Example 2]", "MET"],
  ["Cc1nc(N2C[C@H]3CCN(c4ncnc5[nH]ccc45)C[C@@]3(C)C2)ccc1C#N (racemic)", "NOT MET"]
]}

In: Quick check: does CC12CN(c3ccc(C#N)cn3)C[C@@H]1CCN(c1ncnc3[nH]ccc13)C2 (stereo in doubt) have EC50 under 0.3 µM?
Out: NOT MET

In: Input C[C@@]12CN(c3ncnc4[nH]ccc34)CC[C@@H]1CCN(S(C)(=O)=O)C2 (racemic) ; condition: EC50 strictly below 0.3 µM. Does it hold?
Out: NOT MET

In: Strictly below 0.3 µM in EC50? CC[C@]12CN(c3nnc(Br)s3)CC[C@H]1CCN(c1ncnc3[nH]ccc13)C2 (relative stereo)
Out: MET

In: Is it true that EC50 reported for C[C@@]12CN(c3ncnc4[nH]ccc34)CC[C@@H]1CN(S(C)(=O)=O)C2 (racemic) is less than 0.3 µM?
Out: NOT MET

In: Determine if CCC12CNCCC1CCN(c1ncnc3[nH]ccc13)C2 (stereo not shown) [Intermediate 10] shows EC50 strictly lower than 0.3 µM.
Out: NOT MET
